- Test system: A549 cells
- MEASUREMENT_PROTOCOL: Evaluation of apoptosis, annexin V/PI double staining, flow cytometry
- Format: cell-based, human
- CONDITION_SET: A549, 48 h of exposure to IC50 (DOX 1.5 μM)
EXPERIMENTAL_ENDPOINT: Necrosis (%)
Answers are plain numbers, in %.

Here's what some known entries look like.
| COMPOUND | Necrosis / % |
| --- | --- |
| CCCCCCCCCCCCn1cc[n+](C)c1.CCCCCCCCCCCCn1cc[n+](C)c1.CN(Cc1cnc2nc(N)nc(N)c2n1)c1ccc(C(=O)N[C@@H](CCC(=O)[O-])C(=O)[O-])cc1 [[C12mim]2[MTX]] | 0.1 |
| CCCCCCCCCC[n+]1cccc(C)c1.CCCCCCCCCC[n+]1cccc(C)c1.CN(Cc1cnc2nc(N)nc(N)c2n1)c1ccc(C(=O)N[C@@H](CCC(=O)[O-])C(=O)[O-])cc1 [[C10-3-picoline]2[MTX]] | 0.02 |
| CCCCCCCCCCn1cc[n+](C)c1.CCCCCCCCCCn1cc[n+](C)c1.CN(Cc1cnc2nc(N)nc(N)c2n1)c1ccc(C(=O)N[C@@H](CCC(=O)[O-])C(=O)[O-])cc1 [[C10mim]2[MTX]] | 1.1 |

Could you now consider this next compound?
input: Entry COc1cccc2c1C(=O)c1c(O)c3c(c(O)c1C2=O)C[C@@](O)(C(=O)CO)C[C@@H]3O[C@H]1C[C@H](N)[C@H](O)[C@H](C)O1 [DOX, Doxorubicin, reference compound] has what Necrosis?
output: 23.7

====

- MEASUREMENT_PROTOCOL: Solubility in water, visually determined
Hi there, I'd appreciate the recorded Solubility for every entry that follows.
Answers are plain numbers, in mg/mL.

| MOLECULE | Solubility [mg/mL] |
| --- | --- |
| CN(Cc1cnc2nc(N)nc(N)c2n1)c1ccc(C(=O)N[C@@H](CCC(=O)[O-])C(=O)[O-])cc1.C[N+](C)(C)CCO.C[N+](C)(C)CCO [[Choline]2[MTX]] | 1087.0 |

input: What does the data say about its Solubility? Entry: CN(Cc1cnc2nc(N)nc(N)c2n1)c1ccc(C(=O)N[C@@H](CCC(=O)O)C(=O)O)cc1 [MTX, Methotrexate]
output: 0.01

====

- MEASUREMENT_PROTOCOL: Solubility in water, visually determined
- CONDITION_SET: in water at room temperature
Where Solubility equals or exceeds 200 mg/mL, the correct label is Met; where it does not, the label is Not met.

These solved cases illustrate the format of a correct answer.
| COMPOUND | ANSWER_LABEL |
| --- | --- |
| CCCCCCCCCCCCn1cc[n+](C)c1.CCCCCCCCCCCCn1cc[n+](C)c1.CN(Cc1cnc2nc(N)nc(N)c2n1)c1ccc(C(=O)N[C@@H](CCC(=O)[O-])C(=O)[O-])cc1 [[C12mim]2[MTX]] | Met |
| CN(Cc1cnc2nc(N)nc(N)c2n1)c1ccc(C(=O)NC(CCC(=O)[O-])C(=O)[O-])cc1.C[n+]1ccn(CCO)c1.C[n+]1ccn(CCO)c1 (stereo not shown) [[C2OHmim]2[MTX]] | Met |
| CCn1cc[n+](C)c1.CCn1cc[n+](C)c1.CN(Cc1cnc2nc(N)nc(N)c2n1)c1ccc(C(=O)NC(CCC(=O)[O-])C(=O)[O-])cc1 (stereo not shown) [[C2MIM]2[MTX]] | Met |

input: In plain terms: is recorded Solubility at least 200 mg/mL for CN(Cc1cnc2nc(N)nc(N)c2n1)c1ccc(C(=O)N[C@@H](CCC(=O)[O-])C(=O)[O-])cc1.Cc1ccc[n+](CCO)c1.Cc1ccc[n+](CCO)c1 [[C2OH-3-picoline]2[MTX]] ?
output: Not met

input: Decide: is the reported value of Solubility for CN(Cc1cnc2nc(N)nc(N)c2n1)c1ccc(C(=O)N[C@@H](CCC(=O)[O-])C(=O)[O-])cc1.[Na+].[Na+] [[Na]2[MTX]] [reference compound] equal to or greater than 200 mg/mL?
output: Not met

input: Given the entry CCCCCCCCCC[n+]1cccc(C)c1.CCCCCCCCCC[n+]1cccc(C)c1.CN(Cc1cnc2nc(N)nc(N)c2n1)c1ccc(C(=O)N[C@@H](CCC(=O)[O-])C(=O)[O-])cc1 [[C10-3-picoline]2[MTX]] , answer whether its Solubility meets or surpasses 200 mg/mL.
output: Not met

input: Is the recorded value of Solubility equal to or greater than 200 mg/mL for this compound? CCCCCCCCCCn1cc[n+](C)c1.CCCCCCCCCCn1cc[n+](C)c1.CN(Cc1cnc2nc(N)nc(N)c2n1)c1ccc(C(=O)N[C@@H](CCC(=O)[O-])C(=O)[O-])cc1 [[C10mim]2[MTX]]
output: Met
